Reported inhibition is given for each of the following compounds.
Experiment: inhibitors of Sendai virus-induced IRF3 signaling, primary screen, TLR/RLR signaling modifier project, cell-based, Sendai virus stimulus, luciferase, 10K MLSCN set (AID 602276);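 further: firefly luciferase from ISG56 promoter only with Renilla not read in this screen; 0% = Sendai virus plus DMSO and 100% = medium plus DMSO without virus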
Conditions: HEK293 RL24 IRF3 luciferase reporter, at 10 µM, stronger effect = higher value
// return numeric value only (unit: %, not printed)

Take a look at these entries with their results.
# input Would you kindly share the measured inhibition for O=S(=O)(Nc1ccc2c(c1)OCO2)c1ccc(Br)s1 ?
# output 0.155

# input Would you kindly share the measured inhibition for Nn1c(Cc2ccccc2F)nnc1SCC(=O)N1CC(=O)Nc2ccccc21 ?
# output 11.5

# input Would you kindly share the measured inhibition for CCOC(=O)c1ccc2[nH]c(C)c(CN3CCN(C)CC3)c(=O)c2c1 ?
# output -4.42

# input Would you kindly share the measured inhibition for CCOC(=O)C1=C(C)Nc2nc(SCC(=O)OC)nn2C1c1cc(F)cc(F)c1 (stereo not given) ?
# output 2.11

# input Would you kindly share the measured inhibition for Cc1cc(C)c(NC(=O)CSc2nnc(-c3ccncc3)n2Cc2ccco2)c(C)c1 ?
# output 5.1

# input Would you kindly share the measured inhibition for CC(C)COC(=O)NCC12C=CC(O1)C1C(=O)N(c3ccc(Cl)cc3)C(=O)C12 (stereo not given) ?
# output -5.72

---
# input Would you kindly share the measured inhibition for C=CCc1c(C)nc(SC)nc1Nc1ccc(C(=O)O)cc1 ?
# output 4.8

# input Would you kindly share the measured inhibition for COc1ccccc1-n1c(C)nnc1SCC(=O)Nc1cccc(C(C)=O)c1 ?
# output 17.5

# input Would you kindly share the measured inhibition for COCC(=O)N(Cc1cc2cc(OC)ccc2[nH]c1=O)c1ccccc1 ?
# output 5.46

# input Would you kindly share the measured inhibition for Cc1ccc(-n2c(=O)c(C#N)cc3c(=O)n4ccccc4nc32)cc1 ?
# output 5.28

----------
Biological target: Dual specificity protein phosphatase 6 (Homo sapiens) (UniProt Q16828)
Sequence (Q16828 whole entry, looked up): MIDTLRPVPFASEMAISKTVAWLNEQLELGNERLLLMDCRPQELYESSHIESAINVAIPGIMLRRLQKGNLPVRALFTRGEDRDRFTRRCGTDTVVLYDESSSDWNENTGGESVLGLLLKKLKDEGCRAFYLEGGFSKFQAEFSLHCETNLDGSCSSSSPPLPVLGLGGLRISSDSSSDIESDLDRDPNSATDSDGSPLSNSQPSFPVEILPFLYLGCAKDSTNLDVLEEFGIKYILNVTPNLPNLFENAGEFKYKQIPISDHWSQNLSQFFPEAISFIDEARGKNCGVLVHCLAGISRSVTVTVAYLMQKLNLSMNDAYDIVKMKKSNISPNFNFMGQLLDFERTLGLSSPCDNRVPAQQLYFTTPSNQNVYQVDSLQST
Experiment: DUSP6 inhibitors restoring Erk phosphorylation by chemical complementation, primary imaging in DUSP6-transfected HeLa (AID 609);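 further: phospho-Erk level distribution per well compared with pooled transfected vehicle control wells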
Conditions: HeLa MKP-3 transfected, phospho-Erk imaging KS statistic; at 10 µM; stronger effect = higher value; cells stimulated with TPA for 15 min
measuredQuantity: inhibition (%)
// return numeric value only (unit: %, not printed)

Take a look at these entries with their results.
# input Would you kindly share the measured inhibition for COc1ccc(CCn2c(=N)c(C(=O)NCc3ccco3)cc3c(=O)n4ccccc4nc32)cc1OC ?
# output 14.4

# input Would you kindly share the measured inhibition for CCN(CC)CCN1C(=O)C(O)=C(C(=O)c2cc3ccccc3o2)C1c1cccnc1 (centres undefined) ?
# output 3.56

# input Would you kindly share the measured inhibition for CCc1ccc(-c2cn3nc(C)c(C)nc3n2)cc1 ?
# output 9.91

# input Would you kindly share the measured inhibition for O=C1CC(c2ccccc2)n2nc(N3C(=O)c4ccccc4C3=O)nc2N1 (centres undefined) ?
# output 2.71

# input Would you kindly share the measured inhibition for CC(C)COC(=O)CCNc1n[nH]c(=O)[nH]c1=O ?
# output -11.5

# input Would you kindly share the measured inhibition for Cc1ccc(N(CC(O)CN(C)C)S(=O)(=O)c2ccccc2)cc1 (centres undefined) ?
# output -4.59

# input Would you kindly share the measured inhibition for COc1ccc(C2NC3=C(CCC3)C3(C#N)C(OC)(OC)N=C(N)C23C#N)cc1 (centres undefined) ?
# output 1.42

# input Would you kindly share the measured inhibition for Cc1ccc(CNc2oc(COc3ccccc3Cl)nc2C#N)cc1 ?
# output 4.37

---
# input Would you kindly share the measured inhibition for CCNC(=O)c1cc2c(=O)n3cccc(C)c3nc2n(CCc2ccccc2)c1=N ?
# output 14.7

# input Would you kindly share the measured inhibition for COc1nnnc2c1sc1nc(N3CCOCC3)c3c(c12)CC(C)(C)OC3 ?
# output -13.3

# input Would you kindly share the measured inhibition for O=C(NCCN1CCOCC1)c1ccc(=O)oc1 ?
# output 4.37

# input Would you kindly share the measured inhibition for COc1cccc(C(=O)N2CCN(Cc3ccccn3)CC2)c1OC ?
# output -12.3

# input Would you kindly share the measured inhibition for C=CCc1cccc(/C=N/n2cnnc2)c1O ?
# output 13.4

# input Would you kindly share the measured inhibition for CC(O)(C#CCN1CCOCC1)c1ccccc1 (centres undefined) ?
# output -5.81

# input Would you kindly share the measured inhibition for Cc1cc(=O)oc(C)c1C(=O)NCC1CCCO1 (centres undefined) ?
# output 5.35

# input Would you kindly share the measured inhibition for CN(C)c1ccc(C=Nc2cnn(C)c2C(N)=O)cc1 ?
# output 9.91

# input Would you kindly share the measured inhibition for Cc1cc(C)n(CC2CC(=O)N(c3cc(Cl)cc(Cl)c3)C2=O)n1 (centres undefined) ?
# output -9.53

# input Would you kindly share the measured inhibition for Cc1cc(=O)oc(C)c1C(=O)NCCC1=CCCCC1 ?
# output 1.63

----------
Experiment: inhibitors of E-selectin induction by TNFa, primary screen, imaging, HUVEC, immunofluorescence, MLSMR starter and 10KST1 sets (AID 487);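 further: 100% = median nuclei count of all wells on the same plate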
Settings: HUVEC TNFalpha-induced E-selectin immunofluorescence imaging, at 2 µM; measured here: cell number, toxicity
measuredQuantity: nuclei count (%)
// return numeric value only (unit: %, not printed)

# input Would you kindly share the measured nuclei count for O=c1c2ccccc2nnn1CSc1nnc2sc3ccccc3n12 ?
# output 111

# input Would you kindly share the measured nuclei count for COc1ccccc1S(=O)(=O)Cc1ccc(C(=O)NCCN2CCCCCC2)o1 ?
# output 81.1

# input Would you kindly share the measured nuclei count for Cc1cc(CCC(=O)O)c(C)cc1CCC(=O)O ?
# output 149

----------
Molecular target: Dual specificity protein phosphatase 6 (Homo sapiens)
Test: DUSP6 inhibitors restoring Erk phosphorylation by chemical complementation, primary imaging in DUSP6-transfected HeLa (AID 609);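 further: phospho-Erk level distribution per well compared with pooled transfected vehicle control wells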
Conditions: HeLa MKP-3 transfected, phospho-Erk imaging KS statistic; at 10 µM; stronger effect = higher value; cells stimulated with TPA for 15 min
measuredQuantity: inhibition (%)
// return numeric value only (unit: %, not printed)

# input Notebook: pull reported inhibition for Dual specificity protein phosphatase 6 (Homo sapiens), entry CC(C)c1nc2n[nH]c(N)c2c2c1CCCC2
# output 7.21

---
# input Notebook: pull reported inhibition for Dual specificity protein phosphatase 6 (Homo sapiens), entry O=C1CC(c2ccco2)CC(O)=C1C=NCCN1CCN(C2CC(=O)N(c3ccccc3)C2=O)CC1 (stereo unspecified)
# output -4.78

# input Notebook: pull reported inhibition for Dual specificity protein phosphatase 6 (Homo sapiens), entry CN(CCOC(=O)c1ccc2c(c1)OCCO2)Cc1ccccc1
# output 5.35

# input Notebook: pull reported inhibition for Dual specificity protein phosphatase 6 (Homo sapiens), entry O=C1C2ON(c3ccccc3)C(c3cccnc3)C2C(=O)N1c1ccc(Cl)c(Cl)c1 (stereo unspecified)
# output -5.62

# input Notebook: pull reported inhibition for Dual specificity protein phosphatase 6 (Homo sapiens), entry O=C(C(c1ccccc1)N1CCOCC1)N1CCOCC1 (stereo unspecified)
# output -9.53

# input Notebook: pull reported inhibition for Dual specificity protein phosphatase 6 (Homo sapiens), entry O=c1c2c3c(sc2n2cnnc2n1C1CCCCC1)CCC3
# output -2.59

# input Notebook: pull reported inhibition for Dual specificity protein phosphatase 6 (Homo sapiens), entry O=C(NCc1ccccn1)c1coc(=O)c(Br)c1
# output 9.61

----------
Biological target: Alpha-2C adrenergic receptor (Homo sapiens) (UniProt P18825)
Sequence (P18825 whole entry, looked up): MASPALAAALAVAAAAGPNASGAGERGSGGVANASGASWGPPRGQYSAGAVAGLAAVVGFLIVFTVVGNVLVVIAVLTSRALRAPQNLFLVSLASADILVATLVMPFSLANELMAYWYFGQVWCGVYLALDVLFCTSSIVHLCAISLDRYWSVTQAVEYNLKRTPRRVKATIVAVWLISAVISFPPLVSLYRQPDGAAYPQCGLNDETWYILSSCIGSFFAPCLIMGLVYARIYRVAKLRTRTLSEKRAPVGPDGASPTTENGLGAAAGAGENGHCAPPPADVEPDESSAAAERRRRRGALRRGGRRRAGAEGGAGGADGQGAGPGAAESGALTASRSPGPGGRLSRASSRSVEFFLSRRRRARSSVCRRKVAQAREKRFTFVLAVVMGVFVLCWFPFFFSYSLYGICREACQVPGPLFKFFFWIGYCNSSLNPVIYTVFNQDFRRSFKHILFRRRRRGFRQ
Assay: modulators of alpha2C/GIRK thallium flux, primary screen, cell-based, HEK293 alpha2C/GIRK1/2 (AID 624);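 further: slope of fluorescence ratio to pre-addition baseline per second over 15 to 24 s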
Conditions: thallium flux BTC fluorescence, at 10 µM, actives lie on both sides
measuredQuantity: slope
Write no unit; give the number alone.

Take a look at these entries with their results.
# input Would you kindly share the measured slope for COc1ccccc1S(=O)(=O)Cc1ccc(C(=O)NCCN2CCCCCC2)o1 ?
# output 0.00667

# input Would you kindly share the measured slope for CCOC(=O)c1cccnc1SCC(=O)NC(C)CC (stereo not drawn) ?
# output 0.006

# input Would you kindly share the measured slope for O=C(COC(=O)C1CC1)c1c[nH]c2ccccc12 ?
# output 0.00646

# input Would you kindly share the measured slope for Nc1nc2ccccc2n1C(=O)CCc1ccccc1 ?
# output 0.0047

# input Would you kindly share the measured slope for Cc1ccc(C(=O)NCc2ccc3c(c2)OCO3)cc1S(=O)(=O)N1CCCCC1 ?
# output 0.00487

# input Would you kindly share the measured slope for O=C(O)c1cc2c(s1)CCCC2 ?
# output 0.00578

# input Would you kindly share the measured slope for CCN(CC)S(=O)(=O)N1CCC(C(=O)NC2CCCc3ccccc32)CC1 (stereo not drawn) ?
# output 0.00498

# input Would you kindly share the measured slope for O=C(Cn1cc2c(n1)CCCCC2)N1CCc2ccccc21 ?
# output 0.00739

# input Would you kindly share the measured slope for Cc1cc(C)n(-c2ccc3cccc(NS(C)(=O)=O)c3n2)n1 ?
# output 0.00539

# input Would you kindly share the measured slope for O=C(OCc1ccc2c(c1)OCO2)c1ccc(S(=O)(=O)N2CCCCC2)cc1 ?
# output 0.00821

# input for lookup
# input Would you kindly share the measured slope for COc1ccc(Br)cc1S(=O)(=O)N1CC(C)OC(C)C1 (stereo not drawn) ?
# output 0.0065
